- measuredOn: UniProtKB Q15077
- assayComment: Agonist activity at human recombinant P2Y6 receptor expressed in human 1321N1 cells using [3H]inositol as substrate assessed as [3H]inositol phosphate formation after 30 mins by liquid scintillation counting analysis
- Format: functional, cell-based
Reported pEC50 values for the following compounds.
Schema: pEC50 number; meaning minus log10 of the concentration expressed in molar units.

{"columns": ["structure", "measuredOn", "testValue"],
 "data": [
  ["O=c1[nH]/c(=N\\OCc2cccc(I)c2)ccn1[C@@H]1O[C@H](COP(=O)(O)OP(=O)(O)O)[C@@H](O)[C@H]1O", "UniProtKB Q15077", 7.72],
  ["C#CCCOP(=O)(O)OP(=O)(O)OP(=O)(O)OC[C@H]1O[C@@H](n2cc/c(=N/OCc3ccccc3)[nH]c2=O)[C@H](O)[C@@H]1O", "UniProtKB Q15077", 5.76],
  ["O=c1[nH]/c(=N\\OCc2ccc([N+](=O)[O-])cc2)ccn1[C@@H]1O[C@H](COP(=O)(O)OP(=O)(O)O)[C@@H](O)[C@H]1O", "UniProtKB Q15077", 7.39],
  ["O=c1[nH]/c(=N\\OCc2ccc(I)cc2)ccn1[C@@H]1O[C@H](COP(=O)(O)OP(=O)(O)O)[C@@H](O)[C@H]1O", "UniProtKB Q15077", 6.83],
  ["CC(=O)NCCn1cc(CCOP(=O)(O)OP(=O)(O)OP(=O)(O)OC[C@H]2O[C@@H](n3cc/c(=N/OCc4ccccc4)[nH]c3=O)[C@H](O)[C@@H]2O)nn1", "UniProtKB Q15077", 6.06]
]}

Prompt line: # lookup: UniProtKB Q15077 pEC50, key = O=c1[nH]/c(=N\OCc2ccc(Br)cc2)ccn1[C@@H]1O[C@H](COP(=O)(O)OP(=O)(O)O)[C@@H](O)[C@H]1O
Response line: 7.49

----------
- measuredOn: P2Y purinoceptor 4 (Homo sapiens, UniProt P51582)
- Sequence (P51582 whole entry): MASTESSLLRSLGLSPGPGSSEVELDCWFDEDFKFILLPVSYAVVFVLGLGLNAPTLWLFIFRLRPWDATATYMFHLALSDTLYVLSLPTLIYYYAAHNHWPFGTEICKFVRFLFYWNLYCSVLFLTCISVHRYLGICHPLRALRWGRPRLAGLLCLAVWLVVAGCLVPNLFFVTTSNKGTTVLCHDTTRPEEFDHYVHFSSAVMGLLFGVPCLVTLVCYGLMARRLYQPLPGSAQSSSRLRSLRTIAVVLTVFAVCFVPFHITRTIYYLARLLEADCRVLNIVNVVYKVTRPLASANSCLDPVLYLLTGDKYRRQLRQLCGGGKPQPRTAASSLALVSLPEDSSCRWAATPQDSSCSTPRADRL
- assayComment: Agonist activity at human recombinant P2Y4 receptor expressed in human 1321N1 cells using [3H]inositol as substrate assessed as [3H]inositol phosphate formation after 30 mins by liquid scintillation counting analysis
Reported EC50 values for the following compounds.
Report the value in nM with no unit label.

// known answers, use as guide
{"columns": ["structure", "measuredOn", "EC50 / nM"],
 "data": [
  ["O=c1[nH]/c(=N\\OCc2ccc([N+](=O)[O-])cc2)ccn1[C@@H]1O[C@H](COP(=O)(O)OP(=O)(O)O)[C@@H](O)[C@H]1O", "P2Y purinoceptor 4 (Homo sapiens, UniProt P51582)", 2200],
  ["O=c1[nH]/c(=N\\OCc2ccc(Br)cc2)ccn1[C@@H]1O[C@H](COP(=O)(O)OP(=O)(O)O)[C@@H](O)[C@H]1O", "P2Y purinoceptor 4 (Homo sapiens, UniProt P51582)", 7440],
  ["O=c1ccn([C@@H]2O[C@H](COP(=O)(O)OP(=O)(O)OP(=O)(O)OC[C@H]3O[C@@H](n4cc/c(=N/OCc5ccccc5)[nH]c4=O)[C@H](O)[C@@H]3O)[C@@H](O)[C@H]2O)c(=O)[nH]1", "P2Y purinoceptor 4 (Homo sapiens, UniProt P51582)", 636],
  ["C#CCCC#Cc1cccc(CO/N=c2/ccn([C@@H]3O[C@H](COP(=O)(O)OP(=O)(O)O)[C@@H](O)[C@H]3O)c(=O)[nH]2)c1", "P2Y purinoceptor 4 (Homo sapiens, UniProt P51582)", 952],
  ["CC(=O)NCCn1cc(CCOP(=O)(O)OP(=O)(O)OP(=O)(O)OC[C@H]2O[C@@H](n3cc/c(=N/OCc4ccccc4)[nH]c3=O)[C@H](O)[C@@H]2O)nn1", "P2Y purinoceptor 4 (Homo sapiens, UniProt P51582)", 3300]
]}

Prompt line: Give EC50 for O=c1[nH]/c(=N\OCc2cccc(I)c2)ccn1[C@@H]1O[C@H](COP(=O)(O)OP(=O)(O)O)[C@@H](O)[C@H]1O
Response line: 352

----------
- measuredOn: P2Y purinoceptor 6 (Homo sapiens, UniProt Q15077)
- Sequence (Q15077 whole entry): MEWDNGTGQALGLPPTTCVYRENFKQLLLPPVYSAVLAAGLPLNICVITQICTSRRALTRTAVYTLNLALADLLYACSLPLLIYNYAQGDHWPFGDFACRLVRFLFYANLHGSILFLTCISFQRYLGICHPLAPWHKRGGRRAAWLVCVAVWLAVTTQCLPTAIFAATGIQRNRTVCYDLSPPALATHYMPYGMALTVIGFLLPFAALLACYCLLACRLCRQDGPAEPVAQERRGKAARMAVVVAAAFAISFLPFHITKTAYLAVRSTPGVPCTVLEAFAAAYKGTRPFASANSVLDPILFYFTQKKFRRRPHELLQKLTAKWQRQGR
- assayComment: Agonist activity at human recombinant P2Y6 receptor expressed in human 1321N1 cells using [3H]inositol as substrate assessed as [3H]inositol phosphate formation after 30 mins by liquid scintillation counting analysis
- Format: functional, cell-based
pEC50: −log10 of the molar value.
Returns one of Y or N; Y when pEC50 is >= 7.

{"columns": ["structure", "assignedClass"],
 "data": [
  ["O=c1[nH]/c(=N\\OCc2cccc(Br)c2)ccn1[C@@H]1O[C@H](COP(=O)(O)OP(=O)(O)O)[C@@H](O)[C@H]1O", "Y"],
  ["CO/N=c1/ccn([C@@H]2O[C@H](COP(=O)(O)OP(=O)(O)OP(=O)(O)Oc3ccc4ccccc4c3)[C@@H](O)[C@H]2O)c(=O)[nH]1", "N"],
  ["C#CCCCOP(=O)(O)OP(=O)(O)OP(=O)(O)OC[C@H]1O[C@@H](n2cc/c(=N/OCc3ccccc3)[nH]c2=O)[C@H](O)[C@@H]1O", "N"]
]}

Please find the next molecule below.
Prompt line: Textbook exercise: given the entry N=c1ccc2c(-c3ccc(C(=O)NCCCCCCn4cc(CCC#Cc5cccc(CO/N=c6/ccn([C@@H]7O[C@H](COP(=O)(O)OP(=O)(O)O)[C@@H](O)[C@H]7O)c(=O)[nH]6)c5)nn4)cc3C(=O)O)c3ccc(N)c(S(=O)(=O)O)c3oc-2c1S(=O)(=O)O , state whether its pEC50 is greater than or equal to 7.
Response line: Y

----------
- measuredOn: P2Y purinoceptor 4 (Homo sapiens, UniProt P51582)
- assayComment: Agonist activity at human recombinant P2Y4 receptor expressed in human 1321N1 cells using [3H]inositol as substrate assessed as [3H]inositol phosphate formation at 10 uM after 30 mins by liquid scintillation counting analysis
- Assay type: functional, cell-based
reportedMetric: Activity

// known answers, use as guide
{"columns": ["structure", "testValue"],
 "data": [
  ["N=c1ccc2c(-c3ccc(C(=O)NCCCCCCn4cc(CCC#Cc5cccc(CO/N=c6/ccn([C@@H]7O[C@H](COP(=O)(O)OP(=O)(O)O)[C@@H](O)[C@H]7O)c(=O)[nH]6)c5)nn4)cc3C(=O)O)c3ccc(N)c(S(=O)(=O)O)c3oc-2c1S(=O)(=O)O", "< 50%"],
  ["C#CCCCOP(=O)(O)OP(=O)(O)OP(=O)(O)OC[C@H]1O[C@@H](n2cc/c(=N/OCc3ccccc3)[nH]c2=O)[C@H](O)[C@@H]1O", "< 50%"],
  ["O=c1[nH]/c(=N\\OCc2ccc(I)cc2)ccn1[C@@H]1O[C@H](COP(=O)(O)OP(=O)(O)O)[C@@H](O)[C@H]1O", "< 50%"],
  ["CO/N=c1/ccn([C@@H]2O[C@H](COP(=O)(O)OP(=O)(O)OP(=O)(O)Oc3ccc4ccccc4c3)[C@@H](O)[C@H]2O)c(=O)[nH]1", "< 50%"]
]}

Prompt line: Give Activity for C#CCCOP(=O)(O)OP(=O)(O)OP(=O)(O)OC[C@H]1O[C@@H](n2cc/c(=N/OCc3ccccc3)[nH]c2=O)[C@H](O)[C@@H]1O
Response line: < 50%

----------
Reported EC50 values for the following compounds.
- measuredOn: P2Y purinoceptor 2 (Homo sapiens, UniProt P41231)
- Sequence (P41231 whole entry): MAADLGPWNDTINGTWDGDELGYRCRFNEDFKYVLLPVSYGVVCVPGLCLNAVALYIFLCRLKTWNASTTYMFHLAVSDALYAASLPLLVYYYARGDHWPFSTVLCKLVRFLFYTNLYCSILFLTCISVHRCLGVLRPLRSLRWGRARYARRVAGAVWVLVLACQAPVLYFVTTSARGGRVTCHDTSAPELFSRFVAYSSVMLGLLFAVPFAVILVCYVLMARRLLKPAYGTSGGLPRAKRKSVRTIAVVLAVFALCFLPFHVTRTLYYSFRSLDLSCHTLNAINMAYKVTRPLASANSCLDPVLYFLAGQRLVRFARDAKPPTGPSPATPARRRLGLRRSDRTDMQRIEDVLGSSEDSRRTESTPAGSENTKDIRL
- assayComment: Agonist activity at human recombinant P2Y2 receptor expressed in human 1321N1 cells using [3H]inositol as substrate assessed as [3H]inositol phosphate formation after 30 mins by liquid scintillation counting analysis
Report the value in µM with no unit label.

{"columns": ["structure", "testValue"],
 "data": [
  ["CC(=O)NCCn1cc(CCOP(=O)(O)OP(=O)(O)OP(=O)(O)OC[C@H]2O[C@@H](n3cc/c(=N/OCc4ccccc4)[nH]c3=O)[C@H](O)[C@@H]2O)nn1", 3.8],
  ["O=c1[nH]/c(=N\\OCc2cccc(Br)c2)ccn1[C@@H]1O[C@H](COP(=O)(O)OP(=O)(O)O)[C@@H](O)[C@H]1O", 6.2],
  ["CO/N=c1/ccn([C@@H]2O[C@H](COP(=O)(O)OP(=O)(O)OP(=O)(O)Oc3ccc4ccccc4c3)[C@@H](O)[C@H]2O)c(=O)[nH]1", 2.9],
  ["O=c1[nH]/c(=N\\OCc2ccc([N+](=O)[O-])cc2)ccn1[C@@H]1O[C@H](COP(=O)(O)OP(=O)(O)O)[C@@H](O)[C@H]1O", 3.3]
]}

Prompt line: Give EC50 for O=c1[nH]/c(=N\OCc2cccc(I)c2)ccn1[C@@H]1O[C@H](COP(=O)(O)OP(=O)(O)O)[C@@H](O)[C@H]1O
Response line: 2.5

Prompt line: Give EC50 for O=c1[nH]/c(=N\OCc2ccc(Br)cc2)ccn1[C@@H]1O[C@H](COP(=O)(O)OP(=O)(O)O)[C@@H](O)[C@H]1O
Response line: 5.2

Prompt line: Give EC50 for O=c1ccn([C@@H]2O[C@H](COP(=O)(O)OP(=O)(O)OP(=O)(O)OC[C@H]3O[C@@H](n4cc/c(=N/OCc5ccccc5)[nH]c4=O)[C@H](O)[C@@H]3O)[C@@H](O)[C@H]2O)c(=O)[nH]1
Response line: 1.7

Prompt line: Give EC50 for C#CCCC#Cc1cccc(CO/N=c2/ccn([C@@H]3O[C@H](COP(=O)(O)OP(=O)(O)O)[C@@H](O)[C@H]3O)c(=O)[nH]2)c1
Response line: 3.9

Prompt line: Give EC50 for N=c1ccc2c(-c3ccc(C(=O)NCCCCCCn4cc(CCC#Cc5cccc(CO/N=c6/ccn([C@@H]7O[C@H](COP(=O)(O)OP(=O)(O)O)[C@@H](O)[C@H]7O)c(=O)[nH]6)c5)nn4)cc3C(=O)O)c3ccc(N)c(S(=O)(=O)O)c3oc-2c1S(=O)(=O)O
Response line: 2.5
